molecular target: ThAHAS; assay: AHAS enzyme inhibition assay
measured metric: IC50

| compound | result |
| --- | --- |
| COC(=O)c1ccccc1S(=O)(=O)NC(=O)Nc1nc(C)cc(C)n1 [SM, sulfometuron methyl, reference compound] | ~350 nM |

----------
target: SceAHAS (Saccharomyces cerevisiae, UniProt P07342)
Sequence (P07342 91-687): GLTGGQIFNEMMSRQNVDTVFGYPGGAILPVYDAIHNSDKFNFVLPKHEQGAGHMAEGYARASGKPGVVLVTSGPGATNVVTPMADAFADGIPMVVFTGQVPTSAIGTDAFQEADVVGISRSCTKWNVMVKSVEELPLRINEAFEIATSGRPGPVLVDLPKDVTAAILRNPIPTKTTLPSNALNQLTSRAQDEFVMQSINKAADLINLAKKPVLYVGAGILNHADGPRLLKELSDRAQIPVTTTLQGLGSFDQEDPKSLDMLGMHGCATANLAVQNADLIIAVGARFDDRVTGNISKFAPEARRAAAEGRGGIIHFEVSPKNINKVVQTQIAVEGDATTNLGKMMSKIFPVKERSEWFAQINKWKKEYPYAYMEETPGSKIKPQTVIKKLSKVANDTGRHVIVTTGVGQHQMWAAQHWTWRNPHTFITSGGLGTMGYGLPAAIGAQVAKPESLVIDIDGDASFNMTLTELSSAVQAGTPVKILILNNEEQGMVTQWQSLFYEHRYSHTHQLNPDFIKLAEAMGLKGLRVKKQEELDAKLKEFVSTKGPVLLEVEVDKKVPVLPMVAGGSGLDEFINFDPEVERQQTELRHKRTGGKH

| molecule | Ki |
| --- | --- |
| CCCC=CC=CC(=O)C1=C(O)C(CC(O)(C(=O)O)C(C)C)N(C)C1=O (stereo not shown) | ~83 µM |

----------
biological target: FuoAHAS (Fusarium oxysporum, UniProt X0CFW6)
pKi: −log10 of the molar value.

| compound | test target | pKi |
| --- | --- | --- |
| CCCC=CC=CC(=O)C1=C(O)C(CC(O)(C(=O)O)C(C)C)N(C)C1=O (stereo not shown) | FuoAHAS (Fusarium oxysporum, UniProt X0CFW6) | 4.86 |

----------
molecular target: ThAHAS^M; assay: AHAS enzyme inhibition assay

| molecule | Ki [µM] |
| --- | --- |
| CCCC=CC=CC(=O)C1=C(O)C(CC(O)(C(=O)O)C(C)C)N(C)C1=O (stereo not shown) | 3.39 |

----------
target: ThAHAS K247A (Trichoderma afroharzianum, UniProt A0ABF7PL51, K247A); experiment: AHAS enzyme inhibition assay, K247A mutant
Sequence (A0ABF7PL51 53-689, stated change not applied): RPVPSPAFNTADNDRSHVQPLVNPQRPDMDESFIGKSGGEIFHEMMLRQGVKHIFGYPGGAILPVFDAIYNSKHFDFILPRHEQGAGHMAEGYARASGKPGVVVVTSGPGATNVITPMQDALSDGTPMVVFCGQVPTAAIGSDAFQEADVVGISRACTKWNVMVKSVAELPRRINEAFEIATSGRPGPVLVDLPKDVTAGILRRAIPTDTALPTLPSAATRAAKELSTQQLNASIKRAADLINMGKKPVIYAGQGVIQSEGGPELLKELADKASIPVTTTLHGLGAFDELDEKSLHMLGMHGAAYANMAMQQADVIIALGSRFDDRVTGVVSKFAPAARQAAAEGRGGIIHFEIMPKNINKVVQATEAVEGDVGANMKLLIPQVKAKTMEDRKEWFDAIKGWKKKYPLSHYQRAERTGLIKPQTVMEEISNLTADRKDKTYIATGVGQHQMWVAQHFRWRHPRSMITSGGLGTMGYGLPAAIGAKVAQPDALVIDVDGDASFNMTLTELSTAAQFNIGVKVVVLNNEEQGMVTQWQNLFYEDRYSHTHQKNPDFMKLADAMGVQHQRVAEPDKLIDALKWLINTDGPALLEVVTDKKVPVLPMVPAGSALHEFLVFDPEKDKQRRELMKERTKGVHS
pIC50: −log10 of the molar value.

| molecule | test target | pIC50 |
| --- | --- | --- |
| CCCC=CC=CC(=O)C1=C(O)C(CC(O)(C(=O)O)C(C)C)N(C)C1=O (stereo not shown) [HA, harzianic acid] | ThAHAS K247A (Trichoderma afroharzianum, UniProt A0ABF7PL51, K247A) | 3.79 |
